# TGT: UniProt:P21589
# Assay type: biochemical
# MEASUREMENT_SETUP: 1 mM NaH2PO4 in enzyme buffer, CD73 0.3 nM, AMP 15 uM
What IC50 was measured for each of the following?
Answers are plain numbers, in nM.

Completed entries (count: 7):
O=C(Nc1ccccc1)[C@H]1C[C@@H]1c1cc(-c2c[nH]c(=O)[nH]c2=O)nn2ccnc12 (racemic) :: 9.39
CC1(C)CN(c2cc(-c3c[nH]c(=O)[nH]c3=O)nc3c(F)cnn23)CC1(F)F :: 8.26
O=c1[nH]cc(-c2cc([C@H]3C[C@@H]3c3cc4c(cnn4CC(F)(F)F)cc3F)c3ncc(F)n3n2)c(=O)[nH]1 :: 0.58
O=c1[nH]cc(-c2cc(N3CC4CCC4(F)C3)c3nccn3n2)c(=O)[nH]1 (centres unmarked) :: 32.1
O=c1[nH]cc(-c2cc(N3CC(C4CCC4)C3)c3nccn3n2)c(=O)[nH]1 :: 12.6
O=c1[nH]cc(-c2cc([C@H]3C[C@@H]3c3cccnc3)c3ncc(F)n3n2)c(=O)[nH]1 (racemic) :: 2.2
C[C@H](COc1cc(-c2c[nH]c(=O)[nH]c2=O)nn2ccnc12)c1ccccc1 :: 43.3

// recorded IC50 for "CCC(F)(F)COc1cc(-c2c[nH]c(=O)[nH]c2=O)nn2ccnc12" : 7.02

---

# TGT: CD73 (Homo sapiens (Human), UniProt P21589)
# Sequence (P21589 27-574): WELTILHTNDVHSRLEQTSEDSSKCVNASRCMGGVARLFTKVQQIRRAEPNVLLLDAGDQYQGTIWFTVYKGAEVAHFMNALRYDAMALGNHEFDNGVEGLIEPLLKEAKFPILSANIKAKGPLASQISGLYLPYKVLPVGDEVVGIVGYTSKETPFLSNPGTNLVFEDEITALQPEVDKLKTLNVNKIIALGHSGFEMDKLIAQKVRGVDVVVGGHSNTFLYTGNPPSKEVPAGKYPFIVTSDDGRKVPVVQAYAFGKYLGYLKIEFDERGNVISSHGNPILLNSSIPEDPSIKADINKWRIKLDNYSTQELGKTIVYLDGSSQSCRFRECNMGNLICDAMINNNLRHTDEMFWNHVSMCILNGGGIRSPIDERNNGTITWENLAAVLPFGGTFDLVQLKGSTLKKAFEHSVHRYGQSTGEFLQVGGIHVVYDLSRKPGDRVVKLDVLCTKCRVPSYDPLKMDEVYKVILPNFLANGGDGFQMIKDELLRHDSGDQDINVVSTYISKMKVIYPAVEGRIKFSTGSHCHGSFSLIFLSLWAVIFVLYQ
# Format: biochemical
# MEASUREMENT_SETUP: 1 mM NaH2PO4 in enzyme buffer, CD73 0.3 nM, AMP 15 uM
IC50 vs 6 nM: less than gives criterion met; not less than gives criterion not met.

O=c1[nH]cc(-c2cc([C@H]3C[C@@H]3c3ccc4nccc(OCC(F)(F)F)c4c3)c3nccn3n2)c(=O)[nH]1 :: criterion met

Now let's try a different one.
Check if IC50 falls below 6 nM for O=c1[nH]cc(-c2cc(N3CCC(Oc4ccccc4)C3)c3nccn3n2)c(=O)[nH]1 (stereo not shown) .
criterion met

---

# TGT: CD73 (Homo sapiens (Human))
# Assay type: biochemical
# MEASUREMENT_SETUP: 1 mM NaH2PO4 in enzyme buffer, CD73 0.3 nM, AMP 15 uM
ASSAY_METRIC: IC50

Completed entries (count: 2):
O=c1[nH]cc(-c2cc(NCCCc3ccccc3)c3nccn3n2)c(=O)[nH]1 [Example 486] :: > 250 nM
COc1ccc(CN(CC(F)F)c2cc(-c3c[nH]c(=O)[nH]c3=O)nn3ccnc23)cc1 [Example 671] :: > 250 nM

// recorded IC50 for O=C(c1cn2nc(-c3c[nH]c(=O)[nH]c3=O)cc([C@H]3C[C@@H]3c3ccc(F)cc3)c2n1)N1CCC(F)(F)C1 (racemic) [Example 199] : > 250 nM

---

What log10 of IC50 was measured for each of the following?
# TGT: CD73 (Homo sapiens (Human), UniProt P21589)
# Assay type: biochemical
# MEASUREMENT_SETUP: 1 mM NaH2PO4 in enzyme buffer, CD73 0.3 nM, AMP 15 uM
Friendly reminder: values = log10 of IC50, unit nM.

Completed entries (count: 5):
O=c1[nH]cc(-c2cc(N3CC(F)(COc4ccc(C(F)(F)F)cn4)C3)c3nccn3n2)c(=O)[nH]1 [Example 435] :: 0.78
O=c1[nH]cc(-c2cc(N3CC(F)(C(F)(F)F)C3)n3ncnc3n2)c(=O)[nH]1 [Example 402] :: 1.73
Cn1cc([C@H]2C[C@@H]2c2cc(-c3c[nH]c(=O)[nH]c3=O)nn3ccnc23)ccc1=O (racemic) [Example 184] :: 0.46
O=C(c1cccc([C@H]2C[C@@H]2c2cc(-c3c[nH]c(=O)[nH]c3=O)nn3ccnc23)c1)N1CC(C(F)(F)F)C1 (racemic) [Example 296] :: 0.33
O=c1[nH]cc(-c2cc([C@H]3C[C@@H]3c3ccc4nc(C(F)(F)F)n(CC(F)(F)F)c4c3)c3nccn3n2)c(=O)[nH]1 [Example 620] :: 0.09

Hi team, please reply with log10 of IC50 for each item in this list.
1. O=c1[nH]cc(-c2cc([C@H]3C[C@@H]3c3ccc(C(F)(F)F)cn3)c3nccn3n2)c(=O)[nH]1 (racemic) [Example 149]
2. Cn1ncc2ccc([C@H]3C[C@@H]3c3cc(-c4c[nH]c(=O)[nH]c4=O)nn4ccnc34)cc21 (racemic) [Example 326]

1: 0.52; 2: -0.04
